- System: Hepatitis C virus core protein (core106 dimerization)
- Measurement Protocol: blockers of core106 self-association – biochemical, TR-FRET, triplicate, confirmation (AID 2152);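 further: 0% = DMSO wells and 100% = unlabelled core106 competitor control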
- Recorded Conditions: TR-FRET GST-/Flag-core106 dimerization, HTRF; at 5 µM; hits give high values
The campaign covered roughly 2,300 compounds. About 25 (1%) were called active. Only a selection was taken, and actives are over-represented in it overall.
Observed Property: inhibition (%)

INSERT INTO results (compound, result_units, recorded_measurement) VALUES
  ('CN1CCc2c(sc3c2c(=O)n(-c2ccccc2)c2nnc(SCc4ccccc4)n32)C1', '%', 3.83),
  ('O=C1c2c(O)cccc2Cc2cccc(O)c21', '%', 53.6),
  ('Cc1ccc(OCC(=O)c2cc(C)c(C)cc2C)c([N+](=O)[O-])n1', '%', -9.54),
  ('CC(=O)c1ccc(NC(=O)/C(=C\c2ccccc2)NC(=O)/C=C/c2ccccc2)cc1', '%', -3.84),
  ('C/C=C\C=C/C(=O)Nc1cccc(C2=NOC3(C2)C[C@@H](C(N)=O)N(C(=O)/C=C/CC)C3)c1 (stereo not given in full)', '%', 5.44),
  ('CC(C)Cc1nc(N2CCN(C(=O)c3ccco3)CC2)c(C#N)c2c1CCC2', '%', -9.13),
  ('COc1ccc(CCNC(=O)c2ccc3c(c2)NC(=O)C(CSCc2cc(C)ccc2C)N3)cc1OC (stereo not given)', '%', 2.87),
  ('COc1ccc(C2CC(c3ccccc3)=NN2c2ccc(/C=N/NC(=O)c3ccncc3)cc2)cc1 (stereo not given)', '%', -1.14),
  ('O=C(O)CCC(=O)N1N=C(c2cccs2)CC1c1cn(-c2ccccc2)nc1-c1ccccc1 (stereo not given)', '%', 7.42),
  ('COc1ccc(C2=NN(C(=O)CSc3nc(=O)n4cccc(C)c4n3)C(c3ccc(C)cc3)C2)cc1 (stereo not given)', '%', 21.8),
  ('COc1ccc(C(=O)N/N=C(\C)c2ccc3c(c2)C2C=CCC2C(c2ccccc2)N3)cc1 (stereo not given)', '%', 1.09),
  ('O=C(COc1ccc([N+](=O)[O-])cc1)Nc1nnc(-c2cccnc2)s1', '%', 16.4),
  ('N#Cc1ccc(C23CC4(C2)[C@H](CN(P(=O)(c2ccccc2)c2ccccc2)[C@@H]4c2ccccc2)C3c2ccc(Cl)nc2)cc1 (stereo not given in full)', '%', 8.04),
  ('Cc1cc([N+](=O)[O-])cc2c1NC(c1ccccn1)C1CC=CC21 (stereo not given)', '%', 8.17),
  ('Cc1cc(Cl)ccc1OC(C)C(=O)Nc1ccc(S(=O)(=O)Nc2cnc3ccccc3n2)cc1 (stereo not given)', '%', -3.49),
  ('C=CCn1nnc2sc3c(c2c1=O)CCC(C)C3 (stereo not given)', '%', -1.29),
  ('Cc1ccc2[nH]c(=O)c(CN(Cc3ccc4c(c3)OCO4)Cc3nnnn3Cc3ccco3)cc2c1', '%', -2.73),
  ('CC1=CC(=O)c2c(O)ccc(O)c2C1=O', '%', 35),
  ('O=C(COC(=O)C1c2ccccc2Oc2ccccc21)Nc1ccc2c(c1)OCO2', '%', -1.06),
  ('CCN1C=C(Cc2cccs2)C2=C(C1)C(c1cccs1)C(C#N)=C(N)O2 (stereo not given)', '%', -3.27);

* * *

- Test system: Hepatitis C virus core protein (core106 dimerization)
- Measurement Protocol: blockers of core106 self-association – biochemical, TR-FRET, triplicate, confirmation (AID 2152);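 further: 0% = DMSO wells and 100% = unlabelled core106 competitor control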
- Recorded Conditions: TR-FRET GST-/Flag-core106 dimerization, HTRF; at 5 µM; hits give high values
Screen size: about 2,300 compounds; about 25 (1%) were called active. Shown is part of a subset that was picked to be rich in actives.
Observed Property: inhibition (%)

INSERT INTO assay_data (chemical_string, observed_property, recorded_measurement) VALUES
  ('Cc1ccc2nc(N3CCN(S(=O)(=O)c4ccc5c(c4)OCCO5)CC3)c(C#N)cc2c1', 'inhibition', 14.6),
  ('Cc1cc(C(=O)OCC(=O)c2cccc([N+](=O)[O-])c2)c2cccc(C)c2n1', 'inhibition', 13.6),
  ('Cn1c(SCC(=O)Nc2sccc2C#N)nnc1-c1ccccc1', 'inhibition', -0.16),
  ('COc1cccc2cc(/C(C)=N/Nc3nc(-c4cc(C)ccc4C)cs3)c(=O)oc12', 'inhibition', 16.7),
  ('O=C(Nc1ccc(N2CCCC2)c(Cl)c1)c1ccc2c(c1)OCCO2', 'inhibition', -0.93);

* * *

Items are presented alongside their recorded inhibition.
- Test system: Hepatitis C virus core protein (core106 dimerization)
- Measurement Protocol: blockers of core106 self-association – biochemical, TR-FRET, triplicate, confirmation (AID 2152);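 further: 0% = DMSO wells and 100% = unlabelled core106 competitor control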
- Recorded Conditions: TR-FRET GST-/Flag-core106 dimerization, HTRF; at 5 µM; hits give high values
The campaign covered roughly 2,300 compounds. About 25 (1%) were called active. What follows is part of a selection rich in actives, with near analogues and random picks from the rest.
Observed Property: inhibition (%)

INSERT INTO results (molecule, assayed_system, observed_property, result_units, recorded_measurement) VALUES
  ('O=[N+]([O-])c1ccc(Oc2cc(NC3CCCCCCC3)c([N+](=O)[O-])cc2[N+](=O)[O-])cc1', 'Hepatitis C virus core protein (core106 dimerization)', 'inhibition', '%', -0.42),
  ('CN(C)c1ccc(/C=C/C=C2/SC(=S)N(c3ccccc3)C2=O)cc1', 'Hepatitis C virus core protein (core106 dimerization)', 'inhibition', '%', -12.6),
  ('Cc1ccc(Cc2c(C)nc3nc(SCC(=O)NCCCN4CCCCCC4)nn3c2C)cc1', 'Hepatitis C virus core protein (core106 dimerization)', 'inhibition', '%', 89.8),
  ('C=CCN1C=C2C(=O)C(C)(OC(=O)CCc3ccccc3)C(=O)C=C2C=C1c1ccc(C#N)cc1 (configuration not stated)', 'Hepatitis C virus core protein (core106 dimerization)', 'inhibition', '%', 0.52),
  ('Cc1oc(-c2ccc(F)cc2)cc1-c1nn2c(-c3ccoc3C)nnc2s1', 'Hepatitis C virus core protein (core106 dimerization)', 'inhibition', '%', 20.6),
  ('Cc1ccc(NC(=O)N(Cc2ccc3c(c2)OCO3)Cc2cc3cc4c(cc3[nH]c2=O)OCCO4)cc1', 'Hepatitis C virus core protein (core106 dimerization)', 'inhibition', '%', 2.67),
  ('O=C(Nc1ccc(Cl)c([N+](=O)[O-])c1)c1cnccn1', 'Hepatitis C virus core protein (core106 dimerization)', 'inhibition', '%', 6.55),
  ('Cc1ccc(Cn2c(SCC(=O)Nc3cc(C)on3)nc3ccccc3c2=O)cc1', 'Hepatitis C virus core protein (core106 dimerization)', 'inhibition', '%', 9.61),
  ('CC1CCCCC12NC(=O)N(CC(=O)c1ccc[nH]1)C2=O (configuration not stated)', 'Hepatitis C virus core protein (core106 dimerization)', 'inhibition', '%', -2.48),
  ('COc1ccc(/C=N/NC(=O)c2nn(-c3ccc(Cl)cc3)c(=O)c3c(N)scc23)cc1', 'Hepatitis C virus core protein (core106 dimerization)', 'inhibition', '%', 9.33),
  ('Cc1cc(C(=O)CSc2nnc(-c3ccc(OC(F)F)cc3)o2)c(C)n1Cc1cccs1', 'Hepatitis C virus core protein (core106 dimerization)', 'inhibition', '%', -10.5),
  ('C=CCn1c(C)cc(C2=NNC(=Nc3ccc(C)cc3)SC2)c1C', 'Hepatitis C virus core protein (core106 dimerization)', 'inhibition', '%', -4.54),
  ('CCCCn1c(SCC(=O)Nc2cc(C)on2)nc2ccccc2c1=O', 'Hepatitis C virus core protein (core106 dimerization)', 'inhibition', '%', 54.9),
  ('O=C1C(Cc2ccccc2)S/C(=N/N=C/c2ccco2)N1c1ccccc1 (configuration not stated)', 'Hepatitis C virus core protein (core106 dimerization)', 'inhibition', '%', -8.03),
  ('COc1ccccc1C(CCN(Cc1cccs1)C(C)=O)c1ccco1 (configuration not stated)', 'Hepatitis C virus core protein (core106 dimerization)', 'inhibition', '%', -3.29),
  ('COc1cccc(-n2c(SCC(=O)Nc3cc(C)on3)nc3c([nH]c4ccccc43)c2=O)c1', 'Hepatitis C virus core protein (core106 dimerization)', 'inhibition', '%', -2.22),
  ('CN(CC(=O)Nc1sccc1C#N)C1CCCCC1', 'Hepatitis C virus core protein (core106 dimerization)', 'inhibition', '%', 6.43),
  ('Cc1ccc(NC(=O)Nc2nnc(Cc3ccc([N+](=O)[O-])cc3)s2)cc1', 'Hepatitis C virus core protein (core106 dimerization)', 'inhibition', '%', 6.61),
  ('COc1cccc(NC(=S)Nc2cc(C)cc(C)n2)c1', 'Hepatitis C virus core protein (core106 dimerization)', 'inhibition', '%', 72.9),
  ('Cc1cc(-c2csc(NC(=O)c3cc4ccccc4o3)n2)c(C)n1C', 'Hepatitis C virus core protein (core106 dimerization)', 'inhibition', '%', 22.5),
  ('COc1ccc(N2CCN(C(=O)c3ccc4c(c3)NC(=O)C(CSCc3ccc(C)cc3)N4)CC2)cc1 (configuration not stated)', 'Hepatitis C virus core protein (core106 dimerization)', 'inhibition', '%', 27),
  ('Cc1ccc(NC(=O)CN2C(=O)N/C(=C/c3ccco3)C2=O)cc1', 'Hepatitis C virus core protein (core106 dimerization)', 'inhibition', '%', -4.53),
  ('Cc1csc(SCC(=O)Nc2sc3c(c2C#N)CCC3)n1', 'Hepatitis C virus core protein (core106 dimerization)', 'inhibition', '%', -4.85),
  ('O=C(COC(=O)c1ccccc1Oc1ccccc1)NCc1ccco1', 'Hepatitis C virus core protein (core106 dimerization)', 'inhibition', '%', -1.91),
  ('O=c1c2ccccc2nc2sc3ccccc3n12', 'Hepatitis C virus core protein (core106 dimerization)', 'inhibition', '%', -1),
  ('O=C(N/N=C/c1ccc(N2CCCCC2)o1)C(O)(c1ccccc1)c1ccccc1', 'Hepatitis C virus core protein (core106 dimerization)', 'inhibition', '%', -3.6),
  ('COc1cccc(NC(=O)c2cc(-c3ccc(C)o3)nc3ccccc23)c1', 'Hepatitis C virus core protein (core106 dimerization)', 'inhibition', '%', -3.59),
  ('O=C(Nc1ccc(Cl)c(Cl)c1)Nc1nnc(-c2ccncc2)s1', 'Hepatitis C virus core protein (core106 dimerization)', 'inhibition', '%', 38.8),
  ('COc1ccccc1N1CCN(C(=O)c2ccc3c(c2)NC(=O)C(CSCc2ccccc2C)N3)CC1 (configuration not stated)', 'Hepatitis C virus core protein (core106 dimerization)', 'inhibition', '%', 25.3),
  ('CSc1nc(N(C)CCO)c2sc3nc(-c4ccco4)c4c(c3c2n1)CCC4', 'Hepatitis C virus core protein (core106 dimerization)', 'inhibition', '%', -23.5),
  ('O=C1CC(c2ccco2)Cc2nc(N3CCc4ccccc4C3)ncc21 (configuration not stated)', 'Hepatitis C virus core protein (core106 dimerization)', 'inhibition', '%', 0.9),
  ('CC1=C(C#N)C(=O)N(C2CCS(=O)(=O)C2)C(=O)/C1=C\c1ccco1 (configuration not stated)', 'Hepatitis C virus core protein (core106 dimerization)', 'inhibition', '%', 56.2),
  ('COc1ccc(NC(=O)NNC(=O)COc2ccc3cc(Br)ccc3c2)c(OC)c1', 'Hepatitis C virus core protein (core106 dimerization)', 'inhibition', '%', 0.29),
  ('COC(=O)c1ccc(Oc2coc3cc(OCc4cnn(-c5ccccc5)c4)ccc3c2=O)cc1', 'Hepatitis C virus core protein (core106 dimerization)', 'inhibition', '%', -4.6),
  ('COc1ccccc1NC(=O)c1ccc(SCC(=O)NCc2ccccc2Cl)c([N+](=O)[O-])c1', 'Hepatitis C virus core protein (core106 dimerization)', 'inhibition', '%', -1.75),
  ('Cc1ccc(-c2csc(N3N=C(c4ccccc4)/C(=C\c4ccc(N(C)C)cc4)C3=O)n2)cc1', 'Hepatitis C virus core protein (core106 dimerization)', 'inhibition', '%', 1.99),
  ('CCOc1ccccc1C1C(C#N)=C(N)SC(N)=C1C#N', 'Hepatitis C virus core protein (core106 dimerization)', 'inhibition', '%', 1.92),
  ('COc1cc(OC)c(NC(=O)CN(C)S(=O)(=O)c2ccc(-c3ccc(=O)[nH]n3)s2)cc1Cl', 'Hepatitis C virus core protein (core106 dimerization)', 'inhibition', '%', -0.24),
  ('N#CC1=C(N)SC(N)=C(C#N)C1c1ccnc2ccccc12', 'Hepatitis C virus core protein (core106 dimerization)', 'inhibition', '%', 46.8),
  ('O=C(CN1CCN(c2ccc(F)cc2)CC1)NC(=O)NCc1ccco1', 'Hepatitis C virus core protein (core106 dimerization)', 'inhibition', '%', -6.85),
  ('Cc1oc(-c2ccc(Cl)cc2)cc1-c1nn2c(-c3ccoc3C)nnc2s1', 'Hepatitis C virus core protein (core106 dimerization)', 'inhibition', '%', 52.5),
  ('CCN(CC)c1cc2nc(C)n(Cc3ccccc3)c(=O)c2cc1NC(=O)C1CC1', 'Hepatitis C virus core protein (core106 dimerization)', 'inhibition', '%', 3.07);
